Measured values drawn from ChEMBL document CHEMBL4304747 for this set.

PROTOCOL_SUMMARY: Stability in PBS/DMSO assessed as increase in fluorescence intensity at 10 uM
Format: physicochemical
CONDITIONS: buffer
MEASUREMENT_KIND: Stability

| SAMPLE_SMILES | Stability |
| --- | --- |
| CN1CCc2c(c(=O)oc3c(/C=N/N4CCCCC4)c(O)ccc23)C1 | Unstable |
| O=Cc1c(O)ccc2c3c(c(=O)oc12)CNCC3 | Stable |
| O=c1oc2c(/C=N/N3CCCCC3)c(O)ccc2c2c1CNCC2 | Unstable |
| CN1CCc2c(c(=O)oc3c(C=O)c(O)ccc23)C1 | Stable |
| CC(=O)N/N=C/c1c(O)ccc2c3c(c(=O)oc12)CN(C)CC3 | Unstable |
| CC1(C)COC(c2c(O)ccc3c4c(c(=O)oc23)CNCC4)OC1 | Stable |

Consider the compound CN1CCc2c(c(=O)oc3c(C4OCCCO4)c(O)ccc23)C1 and give its measured Stability.
Stable
